Measured property: melting point (°C)
Kindly provide the numeric value in °C only, without the unit symbol.

{"Compound": "COC(=O)C1=C(CN(C)CCO)NC(c2nccs2)=NC1c1ccc(Cl)cc1Cl (stereo not shown)", "Quantitative result": 132}

Record COC(=O)C1=C(CN2CCSCC2)NC(c2ncccc2F)=NC1c1ccc(F)cc1Cl (stereo not shown) . Reported melting point: 145

Record COC(=O)C1=C(CN(CCO)Cc2ccccc2)NC(c2ncc(F)cc2F)=NC1c1ccc(F)cc1Br (stereo not shown) . Reported melting point: 135

###

Recorded melting point by entry

Worked examples follow.
{"Compound": "COC(=O)C1=C(CN2CCOCC2)NC(c2ncc(F)cc2F)=N[C@H]1c1ccc(F)cc1Br", "melting point": "189 to 190 °C"}
{"Compound": "COC(=O)C1=C(CN2CCOCC2)NC(c2ncccc2F)=NC1c1ccc(Cl)cc1Cl (stereo not shown)", "melting point": "182 to 183 °C"}

Record COC(=O)C1=C(CN2CCOCC2)NC(c2ncccc2F)=NC1c1ccc(F)cc1Cl (stereo not shown) . Reported melting point: 161 to 163 °C

Record COC(=O)C1=C(CN2CCCCC2)NC(c2ncccc2F)=NC1c1ccc(Cl)cc1Cl (stereo not shown) . Reported melting point: 155 to 156 °C

Record COC(=O)C1=C(CN2CCSC2)NC(c2ncc(F)cc2F)=NC1c1ccc(F)cc1Br (stereo not shown) . Reported melting point: 183 to 184 °C

Record COC(=O)C1=C(CN2CCSC2)NC(c2ncccc2F)=NC1c1ccc(Cl)cc1Cl (stereo not shown) . Reported melting point: 175 °C

Record COC(=O)C1=C(CN2CCOCC2)NC(c2ncc(F)cc2F)=N[C@H]1c1ccc(F)cc1Cl . Reported melting point: 178 °C

Record COC(=O)C1=C(CN2CCSC2)NC(c2nccs2)=NC1c1ccc(Cl)cc1Cl (stereo not shown) . Reported melting point: 169 to 170 °C

Record COC(=O)C1=C(CN(CCO)Cc2ccccc2)NC(c2ncccc2F)=NC1c1ccc(F)cc1Cl (stereo not shown) . Reported melting point: 128 °C

Record COC(=O)C1=C(CN(CCO)CCO)NC(c2nccs2)=NC1c1ccc(Cl)cc1Cl (stereo not shown) . Reported melting point: 133 °C

Record COC(=O)C1=C(CN(CCO)CCO)NC(c2ncccc2F)=NC1c1ccc(Cl)cc1Cl (stereo not shown) . Reported melting point: 155 °C

Record COC(=O)C1=C(CN2CCOCC2)NC(c2ncc(F)cc2F)=NC1c1ccc(Cl)cc1Cl (stereo not shown) . Reported melting point: 225 to 227 °C

Record COC(=O)C1=C(CN2CCOCC2)NC(c2ncc(F)cc2F)=NC1c1ccc(F)cc1Br (stereo not shown) . Reported melting point: 216 to 218 °C

Record COC(=O)C1=C(CN2CCSCC2)NC(c2ncccc2F)=NC1c1ccc(F)cc1Br (stereo not shown) . Reported melting point: 128 to 131 °C

Record COC(=O)C1=C(Cn2ccnc2)NC(c2ncc(F)cc2F)=NC1c1ccc(F)cc1Br (stereo not shown) . Reported melting point: 123 to 126 °C

Record COC(=O)C1=C(CN2CCSC2)NC(c2ncccc2F)=NC1c1ccc(F)cc1Cl (stereo not shown) . Reported melting point: 163 to 164 °C
